# Tested on: M19-MEL
# Test summary: NCI tumour cell line growth inhibition, 48 h
Active and inactive are the calls of the source. Cut-off read from the data, not from the text of the source: active = GI50 up to about 1.1 µM and inactive = higher.
GI50 values, listed per item

Some compounds with known GI50 results, for comparison:
Field request: GI50 | item: Nc1c(-c2ccccc2-c2c(N)[n+]([O-])c3ccccc3[n+]2[O-])[n+]([O-])c2ccccc2[n+]1[O-]
8.41 µM (inactive)

Field request: GI50 | item: CC(N)Cc1ccc(Cl)c(Cl)c1 (stereo not drawn)
24.2 µM (inactive)

Field request: GI50 | item: CSc1nc2c(nc(N)n2C2OCC(O)C(O)C2O)c(=O)[nH]1 (stereo not drawn)
> 100 µM (inactive)

Field request: GI50 | item: Cc1ccc2c(c1)CN(C(=O)CCC(=O)OCc1ccccc1)c1ccc(C)cc1CN2C(=O)CCC(=O)OCc1ccccc1
> 100 µM (inactive)

Field request: GI50 | item: O=C1CCSC2=C1SCc1sccc12
> 100 µM (inactive)

---
Field request: GI50 | item: O=C(CP(=O)(O)O)c1cccs1
> 100 µM (inactive)

Field request: GI50 | item: C/C(CC(=O)CCC(=O)Nc1cccc(C(F)(F)F)c1)=N\NC(=O)NN
> 100 µM (inactive)

Field request: GI50 | item: COc1cc(C(=O)CC2OC(=O)C(Cl)=C2Cl)ccc1Cl (stereo not drawn)
> 100 µM (inactive)

* * *

# Tested on: HOP-92
# Test summary: NCI tumour cell line growth inhibition, 48 h
Active and inactive are the calls of the source. Rule as the data show it: active = GI50 up to about 1.1 µM and inactive = higher.
Respond using exactly one of the listed classes: active, inactive

Worked set:
Which outcome did this test record for the compound O=C1NC(N2CCOCC2)=N/C1=C\c1ccc(Cl)cc1 ?
inactive

Which outcome did this test record for the compound O=c1oc2c(O)c(O)c(O)c3c(=O)oc4c(O)c(O)cc1c4c23 ?
inactive

Which outcome did this test record for the compound CCOC(=O)CC[C@H](N)C(=O)N[C@@H](Cc1ccc(N(CCCl)CCCl)cc1)C(=O)OCC ?
active

Which outcome did this test record for the compound CC[As](CC)SCC1OC(OC(C)=O)C(OC(C)=O)C(OC(C)=O)C1OC(C)=O (stereo not given) ?
inactive

Which outcome did this test record for the compound COc1ccc(/C=C2\CN(C)C/C(=C\c3ccc(OC)c(OC)c3OC)C2=O)c(OC)c1OC ?
active

Which outcome did this test record for the compound C=C(c1ccccc1)[C@@]1(O)CC[C@@H]1N(CC#N)Cc1ccccc1 ?
inactive

---
Which outcome did this test record for the compound COc1cc(C=O)c(-c2cc(OC)c(OC)cc2C=O)cc1OC ?
inactive

Which outcome did this test record for the compound Cn1c(S)nnc1CNc1ccc(-c2nnc(S)n2C)cc1 ?
inactive

Which outcome did this test record for the compound CCOC(=O)c1c(C)nc2c3ccccc3c(C#N)c(C)n12 ?
inactive

Which outcome did this test record for the compound O=C(O)C(CSC(c1ccccc1)(c1ccccc1)c1ccccc1)/N=C/c1cccs1 (stereo not given) ?
inactive

* * *

# Test system: NCI-H23
# Test summary: NCI tumour cell line growth inhibition, 48 h
Calls of active or inactive are those of the source. Cut-off read from the data, not from the text of the source: active = GI50 up to about 1.1 µM and inactive = higher.
Respond using exactly one of the listed classes: class 1 (active), class 0 (inactive)

Worked set:
Which outcome did this test record for the molecule NC1=NNC(=O)c2nnc3c(C(=O)O)cnn3c2S1 ?
class 0

Which outcome did this test record for the molecule OCC(S)CS.[Bi] (configuration not stated) ?
class 0

Which outcome did this test record for the molecule CC(=O)N1CC(C)(C)c2c1cc(C)c(O)c2C ?
class 0

Which outcome did this test record for the molecule O=[N+]([O-])CCc1cccc([N+](=O)[O-])c1 ?
class 0

---
Which outcome did this test record for the molecule CC1=CC(=O)c2cccc(O)c2C1=O ?
class 0

Which outcome did this test record for the molecule CC(C)N1[C@@H]2CCCC[C@H]2N(C(C)C)[PH]1=O ?
class 0

Which outcome did this test record for the molecule N#CC(C#N)=C1CCC2C(=C(C#N)C#N)CCC12 (configuration not stated) ?
class 0

Which outcome did this test record for the molecule CCCC(=O)CC(C)C(=O)C(=O)NC12CC3CC(CC(C3)C1)C2 (configuration not stated) ?
class 0

Which outcome did this test record for the molecule O=C(Cc1ccc(Cl)c(Cl)c1)NCCCN1CCN(CCCN2CCCCC2)CC1 ?
class 0

Which outcome did this test record for the molecule Cc1oc2nc1C(=O)NCc1nc(cs1)C(=O)N[C@H](C(C)C)c1nc(cs1)C(=O)N[C@H]2C ?
class 0

Which outcome did this test record for the molecule Cc1c2ccncc2c(C)c2c1[nH]c1ccc(OCCN(C)C)cc12 ?
class 1

Which outcome did this test record for the molecule COC(=O)Oc1nn(C(=O)OC)c(=O)c2ccccc12 ?
class 0
